Data provenance: patent US10196390B2

Each entry below carries its measured pKi, system: UniProt P29597.
Sequence (P29597 whole entry): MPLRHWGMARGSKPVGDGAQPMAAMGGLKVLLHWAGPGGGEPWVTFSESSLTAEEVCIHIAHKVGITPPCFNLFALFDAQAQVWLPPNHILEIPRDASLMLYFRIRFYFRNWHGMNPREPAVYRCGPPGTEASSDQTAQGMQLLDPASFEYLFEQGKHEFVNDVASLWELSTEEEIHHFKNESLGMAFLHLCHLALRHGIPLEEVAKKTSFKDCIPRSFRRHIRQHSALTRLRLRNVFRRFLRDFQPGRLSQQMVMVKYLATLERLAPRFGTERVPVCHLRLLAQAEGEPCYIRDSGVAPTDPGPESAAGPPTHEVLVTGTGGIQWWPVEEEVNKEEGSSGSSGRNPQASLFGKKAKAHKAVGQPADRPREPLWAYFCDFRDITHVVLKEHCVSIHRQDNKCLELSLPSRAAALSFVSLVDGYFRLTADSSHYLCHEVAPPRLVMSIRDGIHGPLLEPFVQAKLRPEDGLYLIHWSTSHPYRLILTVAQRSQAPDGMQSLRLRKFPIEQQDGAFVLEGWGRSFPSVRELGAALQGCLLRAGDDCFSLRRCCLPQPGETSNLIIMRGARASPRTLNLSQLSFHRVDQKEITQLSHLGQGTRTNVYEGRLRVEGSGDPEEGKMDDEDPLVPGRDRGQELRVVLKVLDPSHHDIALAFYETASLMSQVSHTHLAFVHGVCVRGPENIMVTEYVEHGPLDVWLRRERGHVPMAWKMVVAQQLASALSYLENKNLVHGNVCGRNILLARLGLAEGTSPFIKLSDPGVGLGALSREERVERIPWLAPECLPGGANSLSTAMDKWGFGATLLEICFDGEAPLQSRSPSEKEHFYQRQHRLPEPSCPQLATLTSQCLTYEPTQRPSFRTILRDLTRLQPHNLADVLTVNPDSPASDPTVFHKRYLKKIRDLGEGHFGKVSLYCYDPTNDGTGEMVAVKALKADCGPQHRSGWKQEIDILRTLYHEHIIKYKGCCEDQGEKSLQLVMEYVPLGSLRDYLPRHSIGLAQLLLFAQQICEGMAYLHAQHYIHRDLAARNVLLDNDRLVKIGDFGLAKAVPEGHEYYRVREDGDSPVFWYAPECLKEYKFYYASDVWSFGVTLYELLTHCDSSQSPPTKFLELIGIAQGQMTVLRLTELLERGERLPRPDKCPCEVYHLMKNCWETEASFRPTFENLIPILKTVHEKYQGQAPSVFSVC
pKi: −log10 of the molar value.

{"Compound": "COCCC1(c2ccc(Nc3nc(-c4c(F)cccc4F)nc4c3C(=O)NC4)cc2)CCNC1=O (stereo not shown)", "pKi": "> 8.00"}
{"Compound": "CN1CCNC(C)(c2ccc(Nc3cc(-c4c(F)cccc4F)nc4c3C(=O)NC4)nc2)C1=O (stereo not shown)", "pKi": "> 8.00"}
{"Compound": "C[C@@]1(c2ccc(Nc3nc(-c4c(F)cccc4F)nc4c3C(=O)NC4)cc2)NC(=O)NC1=O", "pKi": "> 8.00"}
{"Compound": "CN(CC(C)(C)O)C(=O)Cc1ccc(Nc2nc(-c3c(F)cccc3F)nc3c2C(=O)NC3)cc1", "pKi": "> 8.00"}
{"Compound": "CC(C)NC(=O)c1ccc(Nc2cc(-c3c(F)cccc3F)nc3c2C(=O)NC3)cc1", "pKi": "> 8.00"}
{"Compound": "CC(C)NC(=O)c1ccc(Nc2cc(-c3c(F)cccc3F)nc3c2C(=O)NC3)nc1", "pKi": "> 8.00"}
{"Compound": "CN1CC[C@@](C)(c2ccc(Nc3nc(-c4c(F)cccc4F)nc4c3C(=O)NC4)cc2)C1=O", "pKi": "> 8.00"}
{"Compound": "CCNC(=O)Cc1ccc(Nc2nc(-c3ccccc3Cl)nc3c2C(=O)NC3)cc1", "pKi": "7.00 to 8.00"}
{"Compound": "O=C1NCc2nc(-c3c(F)cccc3F)cc(Nc3ccc(N4CCC(N5CCOCC5)CC4)cn3)c21", "pKi": "> 8.00"}
{"Compound": "O=C(O)Cc1ccc(Nc2nc(-c3c(F)cccc3C(F)(F)F)nc3c2C(=O)NC3)cc1", "pKi": "7.00 to 8.00"}
{"Compound": "CCOC(=O)Cc1ccc(Nc2nc(-c3ccccc3Cl)nc3c2C(=O)NC3)cc1", "pKi": "> 8.00"}
{"Compound": "CCOC(=O)Cc1ccc(Nc2nc(-c3c(F)cccc3Cl)nc3c2C(=O)NC3)cc1", "pKi": "> 8.00"}
{"Compound": "CC1(C)C[C@@H](c2ccc(Nc3nc(-c4c(F)cccc4F)nc4c3C(=O)NC4)cc2)C(=O)N1", "pKi": "> 8.00"}
{"Compound": "O=C1NCc2nc(-c3c(F)cccc3F)nc(Nc3ccc(Cn4ccnn4)cc3)c21", "pKi": "> 8.00"}
{"Compound": "O=C1NCc2nc(-c3c(F)cccc3F)nc(Nc3ccc(OC(F)(F)F)cc3)c21", "pKi": "7.00 to 8.00"}
{"Compound": "CC(C)(O)CNC(=O)Cc1ccc(Nc2nc(-c3c(F)cccc3F)nc3c2C(=O)NC3)cc1", "pKi": "> 8.00"}
{"Compound": "N#Cc1cc(Cl)c(-c2nc3c(c(Nc4ccc(CC(=O)O)cc4)n2)C(=O)NC3)c(Cl)c1", "pKi": "> 8.00"}
{"Compound": "O=C1NCc2nc(-c3c(F)cccc3F)nc(Nc3ccc(CC(=O)N4CC5(COC5)C4)cc3)c21", "pKi": "> 8.00"}
{"Compound": "O=C(Cc1ccc(Nc2nc(-c3c(F)cccc3F)nc3c2C(=O)NC3)cc1)NC1CC2(CNC2)C1", "pKi": "> 8.00"}
{"Compound": "CCNC(=O)Cn1cc(Nc2nc(-c3c(F)cccc3F)nc3c2C(=O)NC3)cn1", "pKi": "7.00 to 8.00"}
{"Compound": "O=C(NCCO)c1ccc(Nc2cc(-c3c(F)cccc3F)nc3c2C(=O)NC3)nc1", "pKi": "> 8.00"}
{"Compound": "CCNC(=O)Cc1ccc(Nc2cc(-c3c(F)cccc3F)nc3c2C(=O)NC3)nc1", "pKi": "7.00 to 8.00"}
{"Compound": "C[C@@H]1COC[C@@H](C)N1c1ccc(Nc2cc(-c3c(F)cccc3F)nc3c2C(=O)NC3)nc1", "pKi": "> 8.00"}
{"Compound": "CCNC(=O)Cc1ccc(Nc2nc(-c3c(F)cccc3F)nc3c2C(=O)NC3)cc1", "pKi": "> 8.00"}
{"Compound": "O=C1NCc2nc(-c3c(F)cccc3F)cc(Nc3ccc(C(=O)N4CCOCC4)cc3)c21", "pKi": "> 8.00"}
{"Compound": "CC1(c2ccc(Nc3nc(-c4c(F)cccc4F)nc4c3C(=O)NC4)cc2)CCN(C2CCOCC2)C1=O (stereo not shown)", "pKi": "> 8.00"}
{"Compound": "C[C@@H](C(=O)N1CCCCC1)c1ccc(Nc2nc(-c3c(F)cccc3F)nc3c2C(=O)NC3)cc1", "pKi": "> 8.00"}
{"Compound": "CC(C)(C(=O)O)c1ccc(Nc2nc(-c3c(F)cccc3F)nc3c2C(=O)NC3)cc1", "pKi": "> 8.00"}
{"Compound": "O=C(Cc1ccc(Nc2nc(-c3c(F)cccc3F)nc3c2C(=O)NC3)cn1)NC1CCNCC1", "pKi": "6.00 to 7.00"}
{"Compound": "CC1(C)C[C@H](c2ccc(Nc3nc(-c4c(F)cccc4F)nc4c3C(=O)NC4)cc2)C(=O)N1", "pKi": "> 8.00"}
{"Compound": "O=C(Cc1ccc(Nc2nc(-c3c(F)cccc3F)nc3c2C(=O)NC3)cc1)NCC1CCNCC1", "pKi": "> 8.00"}
